Kindly supply the reported EC50 values for the records listed here.
Target: Oxysterols receptor LXR-beta (Homo sapiens, UniProt P55055)
Sequence (P55055 whole entry, the tested form may be a part): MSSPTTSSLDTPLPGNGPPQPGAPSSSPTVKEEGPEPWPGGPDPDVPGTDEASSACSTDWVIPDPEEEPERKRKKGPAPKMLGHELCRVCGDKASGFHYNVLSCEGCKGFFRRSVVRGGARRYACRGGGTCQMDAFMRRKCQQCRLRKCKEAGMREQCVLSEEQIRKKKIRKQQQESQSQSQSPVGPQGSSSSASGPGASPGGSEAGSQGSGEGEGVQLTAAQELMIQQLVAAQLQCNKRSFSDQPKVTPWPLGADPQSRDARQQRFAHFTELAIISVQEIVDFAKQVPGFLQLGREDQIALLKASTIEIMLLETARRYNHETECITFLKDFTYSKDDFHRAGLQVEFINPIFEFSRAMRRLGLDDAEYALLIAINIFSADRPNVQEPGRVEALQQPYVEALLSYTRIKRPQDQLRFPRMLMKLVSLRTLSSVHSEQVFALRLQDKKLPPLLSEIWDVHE
Test: Agonist activity at human LXRbeta assessed as association of SRC1 to LXRbeta ligand binding domain by FRET based cell-free ligand sensing assay
A number alone suffices; assume nM.

Exam item: Form field: EC50 recorded for CCC(CC)(C(=O)O)c1cccc(OCCCN(Cc2cccc(C(F)(F)F)c2Cl)CC(c2ccccc2)c2ccccc2)c1 with Oxysterols receptor LXR-beta (Homo sapiens, UniProt P55055) (enter value)
Marked response: 174

Exam item: Form field: EC50 recorded for O=C(O)Cc1ccc2cc(CCN(Cc3cccc(C(F)(F)F)c3Cl)CC(c3ccccc3)c3ccccc3)oc2c1 with Oxysterols receptor LXR-beta (Homo sapiens, UniProt P55055) (enter value)
Marked response: 63

Exam item: Form field: EC50 recorded for C[C@H](CCN(Cc1cccc(C(F)(F)F)c1Cl)CC(c1ccccc1)c1ccccc1)Oc1cccc(CC(=O)O)c1 with Oxysterols receptor LXR-beta (Homo sapiens, UniProt P55055) (enter value)
Marked response: 41

Exam item: Form field: EC50 recorded for C[C@@H](COc1cccc(CC(=O)O)c1)CN(Cc1cccc(C(F)(F)F)c1Cl)CC(c1ccccc1)c1ccccc1 with Oxysterols receptor LXR-beta (Homo sapiens, UniProt P55055) (enter value)
Marked response: 86

Exam item: Form field: EC50 recorded for C[C@@H](CCN(Cc1cccc(C(F)(F)F)c1Cl)CC(c1ccccc1)c1ccccc1)Oc1cccc(CC(=O)O)c1 with Oxysterols receptor LXR-beta (Homo sapiens, UniProt P55055) (enter value)
Marked response: 145

Exam item: Form field: EC50 recorded for O=C(O)Cc1ccc2oc(CCN(Cc3cccc(C(F)(F)F)c3Cl)CC(c3ccccc3)c3ccccc3)cc2c1 with Oxysterols receptor LXR-beta (Homo sapiens, UniProt P55055) (enter value)
Marked response: 145

Exam item: Form field: EC50 recorded for CC(C(=O)O)c1cccc(OCCCN(Cc2cccc(C(F)(F)F)c2Cl)CC(c2ccccc2)c2ccccc2)c1 (stereo not drawn) with Oxysterols receptor LXR-beta (Homo sapiens, UniProt P55055) (enter value)
Marked response: 15

Exam item: Form field: EC50 recorded for C[C@H](CCOc1cccc(CC(=O)O)c1)N(Cc1cccc(C(F)(F)F)c1Cl)CC(c1ccccc1)c1ccccc1 [ABEQUOLIXRON] with Oxysterols receptor LXR-beta (Homo sapiens, UniProt P55055) (enter value)
Marked response: 25

----------
Assay: Oral bioavailability in Sprague-Dawley rat at 4.5 mg/kg
Assay type: ADME, organism-based
Conditions: in vivo
ATTRIBUTE_MEASURED: bioavailability (%)
A number alone suffices; assume %.

Exam item: For the compound shown here, C[C@H](CCOc1cccc(CC(=O)O)c1)N(Cc1cccc(C(F)(F)F)c1Cl)CC(c1ccccc1)c1ccccc1 , give the reported bioavailability.
Marked response: 71

----------
Kindly supply the reported Activity values for the records listed here.
Target: Oxysterols receptor LXR-beta (Homo sapiens) (UniProt P55055)
Test: Agonist activity at human LXRbeta assessed as association of SRC1 to LXRbeta ligand binding domain by FRET based cell-free ligand sensing assay relative to 2-(3-(3-((2-chloro-3-(trifluoromethyl)benzyl)(2,2-diphenylethyl)amino)propoxy)phenyl)acetic acid
Design: concentration or dose not given beside the values
A number alone suffices; assume %.

Exam item: For the compound shown here, C[C@@H](COc1cccc(CC(=O)O)c1)CN(Cc1cccc(C(F)(F)F)c1Cl)CC(c1ccccc1)c1ccccc1 , give the reported Activity.
Marked response: 70

Exam item: For the compound shown here, C[C@H](CCOc1cccc(CC(=O)O)c1)N(Cc1cccc(C(F)(F)F)c1Cl)CC(c1ccccc1)c1ccccc1 [ABEQUOLIXRON] , give the reported Activity.
Marked response: 89

Exam item: For the compound shown here, C[C@H](CCOc1cccc(C(C)(C)C(=O)O)c1)N(Cc1cccc(C(F)(F)F)c1Cl)CC(c1ccccc1)c1ccccc1 , give the reported Activity.
Marked response: 100

Exam item: For the compound shown here, C[C@H](CCN(Cc1cccc(C(F)(F)F)c1Cl)CC(c1ccccc1)c1ccccc1)Oc1cccc(CC(=O)O)c1 , give the reported Activity.
Marked response: 76

Exam item: For the compound shown here, C[C@@H](CCOc1cccc(CC(=O)O)c1)N(Cc1cccc(C(F)(F)F)c1Cl)CC(c1ccccc1)c1ccccc1 , give the reported Activity.
Marked response: 80

Exam item: For the compound shown here, C[C@@H](CCN(Cc1cccc(C(F)(F)F)c1Cl)CC(c1ccccc1)c1ccccc1)Oc1cccc(CC(=O)O)c1 , give the reported Activity.
Marked response: 59

Exam item: For the compound shown here, O=C(O)Cc1ccc2oc(CCN(Cc3cccc(C(F)(F)F)c3Cl)CC(c3ccccc3)c3ccccc3)cc2c1 , give the reported Activity.
Marked response: 26

Exam item: For the compound shown here, CC(C(=O)O)c1cccc(OCCCN(Cc2cccc(C(F)(F)F)c2Cl)CC(c2ccccc2)c2ccccc2)c1 (configuration not stated) , give the reported Activity.
Marked response: 90

Exam item: For the compound shown here, CCC(CC)(C(=O)O)c1cccc(OCCCN(Cc2cccc(C(F)(F)F)c2Cl)CC(c2ccccc2)c2ccccc2)c1 , give the reported Activity.
Marked response: 68

Exam item: For the compound shown here, O=C(O)C1CCCc2c(OCCCN(Cc3cccc(C(F)(F)F)c3Cl)CC(c3ccccc3)c3ccccc3)cccc21 (racemic) , give the reported Activity.
Marked response: 100

Exam item: For the compound shown here, CC(C)(C(=O)O)c1cccc(OCCCN(Cc2cccc(C(F)(F)F)c2Cl)CC(c2ccccc2)c2ccccc2)c1 , give the reported Activity.
Marked response: 95

Exam item: For the compound shown here, O=C(O)Cc1ccc2cc(CCN(Cc3cccc(C(F)(F)F)c3Cl)CC(c3ccccc3)c3ccccc3)oc2c1 , give the reported Activity.
Marked response: 75

----------
Experiment: Half life in Sprague-Dawley rat at 4.5 mg/kg, po
Assay type: ADME, organism-based
Set-up: dose 4.5 mg/kg, route oral
Conditions: in vivo
ATTRIBUTE_MEASURED: half-life (h)
A number alone suffices; assume h.

Exam item: For the compound shown here, C[C@H](CCOc1cccc(CC(=O)O)c1)N(Cc1cccc(C(F)(F)F)c1Cl)CC(c1ccccc1)c1ccccc1 [ABEQUOLIXRON] , give the reported half-life.
Marked response: 2.4

----------
Kindly supply the reported EC50 values for the records listed here.
Tested on: RAW264.7
Experiment: Induction of [3H]cholesterol efflux in mouse RAW264.7 cells loaded with acetylated-LDL after 24 hrs
Type: functional, cell-based
A number alone suffices; assume nM.

Exam item: For the molecule shown here, O=C(O)Cc1cccc(OCCCN(Cc2cccc(C(F)(F)F)c2Cl)CC(c2ccccc2)c2ccccc2)c1 , give the reported EC50.
Marked response: 29

Exam item: For the molecule shown here, O=C(O)C1CCCc2c(OCCCN(Cc3cccc(C(F)(F)F)c3Cl)CC(c3ccccc3)c3ccccc3)cccc21 (racemic) , give the reported EC50.
Marked response: 18

Exam item: For the molecule shown here, CC(C)(C(=O)O)c1cccc(OCCCN(Cc2cccc(C(F)(F)F)c2Cl)CC(c2ccccc2)c2ccccc2)c1 , give the reported EC50.
Marked response: 7

Exam item: For the molecule shown here, CC(C(=O)O)c1cccc(OCCCN(Cc2cccc(C(F)(F)F)c2Cl)CC(c2ccccc2)c2ccccc2)c1 (centres undefined) , give the reported EC50.
Marked response: 15

Exam item: For the molecule shown here, C[C@H](CCOc1cccc(CC(=O)O)c1)N(Cc1cccc(C(F)(F)F)c1Cl)CC(c1ccccc1)c1ccccc1 [ABEQUOLIXRON] , give the reported EC50.
Marked response: 17

Exam item: For the molecule shown here, C[C@@H](COc1cccc(CC(=O)O)c1)CN(Cc1cccc(C(F)(F)F)c1Cl)CC(c1ccccc1)c1ccccc1 , give the reported EC50.
Marked response: 76

Exam item: For the molecule shown here, C[C@@H](CCOc1cccc(CC(=O)O)c1)N(Cc1cccc(C(F)(F)F)c1Cl)CC(c1ccccc1)c1ccccc1 , give the reported EC50.
Marked response: 54

Exam item: For the molecule shown here, C[C@H](CCN(Cc1cccc(C(F)(F)F)c1Cl)CC(c1ccccc1)c1ccccc1)Oc1cccc(CC(=O)O)c1 , give the reported EC50.
Marked response: 34

----------
Target: Oxysterols receptor LXR-alpha (Homo sapiens, UniProt Q13133)
Sequence (Q13133 whole entry, the tested form may be a part): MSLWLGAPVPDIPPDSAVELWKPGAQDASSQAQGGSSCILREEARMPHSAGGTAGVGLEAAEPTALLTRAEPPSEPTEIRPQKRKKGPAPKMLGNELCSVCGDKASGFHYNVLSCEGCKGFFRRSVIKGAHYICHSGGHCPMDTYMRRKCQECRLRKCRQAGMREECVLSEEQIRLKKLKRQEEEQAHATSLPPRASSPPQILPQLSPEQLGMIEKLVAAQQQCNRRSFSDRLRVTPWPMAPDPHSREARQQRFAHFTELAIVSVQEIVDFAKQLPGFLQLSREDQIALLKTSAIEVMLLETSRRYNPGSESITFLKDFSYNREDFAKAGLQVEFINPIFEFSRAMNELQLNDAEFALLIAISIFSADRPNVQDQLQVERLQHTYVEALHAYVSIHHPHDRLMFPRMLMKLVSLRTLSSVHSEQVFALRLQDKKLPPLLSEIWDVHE
Assay: Agonist activity at human LXRalpha assessed as association of SRC1 to LXRalpha ligand binding domain by FRET based cell-free ligand sensing assay
ATTRIBUTE_MEASURED: EC50 (nM)
A number alone suffices; assume nM.

Exam item: For the compound shown here, C[C@@H](COc1cccc(CC(=O)O)c1)CN(Cc1cccc(C(F)(F)F)c1Cl)CC(c1ccccc1)c1ccccc1 , give the reported EC50.
Marked response: 280

Exam item: For the compound shown here, C[C@@H](CCN(Cc1cccc(C(F)(F)F)c1Cl)CC(c1ccccc1)c1ccccc1)Oc1cccc(CC(=O)O)c1 , give the reported EC50.
Marked response: 365

Exam item: For the compound shown here, O=C(O)Cc1ccc2oc(CCN(Cc3cccc(C(F)(F)F)c3Cl)CC(c3ccccc3)c3ccccc3)cc2c1 , give the reported EC50.
Marked response: 305

Exam item: For the compound shown here, CCC(CC)(C(=O)O)c1cccc(OCCCN(Cc2cccc(C(F)(F)F)c2Cl)CC(c2ccccc2)c2ccccc2)c1 , give the reported EC50.
Marked response: 380

Exam item: For the compound shown here, O=C(O)C1CCCc2c(OCCCN(Cc3cccc(C(F)(F)F)c3Cl)CC(c3ccccc3)c3ccccc3)cccc21 (racemic) , give the reported EC50.
Marked response: 56

Exam item: For the compound shown here, O=C(O)Cc1ccc2cc(CCN(Cc3cccc(C(F)(F)F)c3Cl)CC(c3ccccc3)c3ccccc3)oc2c1 , give the reported EC50.
Marked response: 331

Exam item: For the compound shown here, CC(C(=O)O)c1cccc(OCCCN(Cc2cccc(C(F)(F)F)c2Cl)CC(c2ccccc2)c2ccccc2)c1 (stereo not drawn) , give the reported EC50.
Marked response: 46

Exam item: For the compound shown here, C[C@@H](CCOc1cccc(CC(=O)O)c1)N(Cc1cccc(C(F)(F)F)c1Cl)CC(c1ccccc1)c1ccccc1 , give the reported EC50.
Marked response: 211
